assay-overview: self-splicing fitness, log relative to wild type (ln ratio); higher = more splicing; Tetrahymena group I intron in knt gene, E. coli kanamycin selection, DiMSum; sequences stand for … in CUCUCU…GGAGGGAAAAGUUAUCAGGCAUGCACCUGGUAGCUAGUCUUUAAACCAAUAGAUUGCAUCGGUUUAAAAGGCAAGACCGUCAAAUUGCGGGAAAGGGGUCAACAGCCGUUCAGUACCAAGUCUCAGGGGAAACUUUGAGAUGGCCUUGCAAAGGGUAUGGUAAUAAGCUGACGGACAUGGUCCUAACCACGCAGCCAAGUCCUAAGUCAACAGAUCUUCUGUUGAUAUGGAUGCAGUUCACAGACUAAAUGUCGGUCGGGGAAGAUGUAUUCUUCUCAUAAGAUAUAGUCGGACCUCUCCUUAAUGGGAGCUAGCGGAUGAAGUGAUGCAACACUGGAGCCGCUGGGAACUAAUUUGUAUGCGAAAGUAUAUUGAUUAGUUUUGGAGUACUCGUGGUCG;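 further: selection with 25 µg/mL kanamycin versus none on LB agar overnight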
run-parameters: 30 °C
Entry flag: Condition met if self-splicing fitness (ln) reaches -1; Condition not met if it does not.

# query-sequence, assigned-class
measured = [
    ("UCGAAGCAAUAUUACGGCCU", "Condition not met"),
    ("UCACAGCAAUAUUACGAGAC", "Condition not met"),
    ("ACGUAGCAAUAUUACGGUAG", "Condition not met"),
    ("CUGCAGCAAUAUUACGUGAU", "Condition not met"),
    ("CCAGAGCAAUAUUACGUUUU", "Condition not met"),
    ("GGUCAGCAAUAUUACGAUCA", "Condition met"),
    ("GUACAGCAAUAUUACGUCUU", "Condition met"),
    ("AGUUAGCAAUAUUACGUAAU", "Condition not met"),
    ("UAGAAGCAAUAUUACGAGUC", "Condition not met"),
    ("CAAAAGCAAUAUUACGAUGA", "Condition met"),
    ("AUAAAGCAAUAUUACGACAG", "Condition not met"),
    ("AAGCAGCAAUAUUACGCAGG", "Condition not met"),
    ("AUCAAGCAAUAUUACGCUCU", "Condition met"),
    ("GCGCAGCAAUAUUACGCUAA", "Condition not met"),
    ("CUGCAGCAAUAUUACGCUUA", "Condition not met"),
    ("UUCCAGCAAUAUUACGGCGG", "Condition not met"),
    ("UUCAAGCAAUAUUACGUGGU", "Condition not met"),
    ("AACUAGCAAUAUUACGUCGA", "Condition met"),
    ("UUAGAGCAAUAUUACGGCGC", "Condition not met"),
    ("GGGAAGCAAUAUUACGAGCG", "Condition not met"),
    ("CACGAGCAAUAUUACGUAGU", "Condition not met"),
    ("GGGGAGCAAUAUUACGGUUU", "Condition not met"),
    ("GGGUAGCAAUAUUACGGGUC", "Condition not met"),
    ("GCUCAGCAAUAUUACGAUGU", "Condition met"),
    ("UCCUAGCAAUAUUACGAUCG", "Condition not met"),
    ("GAUGAGCAAUAUUACGCCCG", "Condition not met"),
    ("CGGUAGCAAUAUUACGUGGC", "Condition not met"),
    ("GGAUAGCAAUAUUACGAUUC", "Condition not met"),
    ("ACGAAGCAAUAUUACGACGG", "Condition not met"),
    ("AGCUAGCAAUAUUACGGGGA", "Condition not met"),
    ("GUUUAGCAAUAUUACGCGUA", "Condition met"),
    ("UAUUAGCAAUAUUACGCUAC", "Condition not met"),
    ("UCGGAGCAAUAUUACGUGAC", "Condition not met"),
]

// provenance: the supplement of paper PMC7877785
